The values you see were collected from patent US4409238A.

Parameter: Mortality (%) 1 μg/fly. Scope: all listed entries.
- Test system: houseflies (Musca domestica)
- protocol.text: Mortality test against houseflies by topical application method (Test Example 1)
- Type: in vivo
- condition.set: 1 μg/fly, female adult houseflies, 24 hours, 25° C.
observable: Mortality (%) 1 μg/fly

>>> quantitative_readout("CC(C)(CC=C(Cl)Cl)CC(=O)OCc1cccc(Oc2ccccc2)c1 [Compound [11]]")
100
>>> quantitative_readout("CC(C)C(CC=C(Br)Br)C(=O)OC(C#N)c1cccc(Oc2ccccc2)c1 (stereo not drawn) [Compound [9]]")
100
>>> quantitative_readout("CC(C)C(C=C(Cl)Cl)C(=O)OC(C#N)c1cccc(Oc2ccccc2)c1 (stereo not drawn) [Compound [1]]")
100
>>> quantitative_readout("C=CCC1=C(C)C(OC(=O)C2C(C=C(C)C)C2(C)C)CC1=O (stereo not drawn) [Allethrin, reference compound]")
50
>>> quantitative_readout("CC(C)=CCC(C(=O)OCc1cccc(Oc2ccccc2)c1)C(C)C (stereo not drawn) [reference compound]")
0
>>> quantitative_readout("C=CCC(C(=O)OCc1cccc(Oc2ccccc2)c1)C(C)C (stereo not drawn) [reference compound]")
0
>>> quantitative_readout("C#CC(OC(=O)C(CC=C(Cl)Cl)C(C)C)c1cccc(Oc2ccccc2)c1 (stereo not drawn) [Compound [7]]")
90
>>> quantitative_readout("CC(C)C(CC=C(Br)Br)C(=O)OCc1cccc(Oc2ccccc2)c1 (stereo not drawn) [Compound [8]]")
100
>>> quantitative_readout("CC(C)C(CC=C(Cl)Cl)C(=O)OCc1cccc(Oc2ccccc2)c1 (stereo not drawn) [Compound [5]]")
100
>>> quantitative_readout("CC(C)C(CC=C(Cl)Cl)C(=O)OC(C#N)c1cccc(Oc2ccccc2)c1 (stereo not drawn) [Compound [6]]")
100
>>> quantitative_readout("C#CC(OC(=O)C(CC=C(Br)Br)C(C)C)c1cccc(Oc2ccccc2)c1 (stereo not drawn) [Compound [10]]")
100
>>> quantitative_readout("CC(C)(CC(=O)OCc1cccc(Oc2ccccc2)c1)C(Cl)C=C(Cl)Cl (stereo not drawn) [Compound [17]]")
100
>>> quantitative_readout("C#CC(OC(=O)C(C=C(Cl)Cl)C(C)C)c1cccc(Oc2ccccc2)c1 (stereo not drawn) [[2]]")
100
>>> quantitative_readout("C#CC(OC(=O)CC(C)(C)CC=C(Cl)Cl)c1cccc(Oc2ccccc2)c1 (stereo not drawn) [Compound [13]]")
90
>>> quantitative_readout("CC(C)(CC=C(Cl)Cl)CC(=O)OC(C#N)c1cccc(Oc2ccccc2)c1 (stereo not drawn) [Compound [12]]")
100

----------
- protocol.text: Hydrolysis resistance test (Test Example 5)
- Type: physicochemical
- condition.set: acetone/water, reflux for 2 days; read-out: Residue (%)
observable: remaining at 48 h

>>> result("CC(C)(CC=C(Cl)Cl)CC(=O)OC(C#N)c1cccc(Oc2ccccc2)c1 (stereo not drawn) [Compound [12]]")
"> 90%"
>>> result("C#CC(OC(=O)C(C=C(Cl)Cl)C(C)C)c1cccc(Oc2ccccc2)c1 (stereo not drawn) [[2]]")
"> 90%"
>>> result("CC(C)C(CC=C(Cl)Cl)C(=O)OC(C#N)c1cccc(Oc2ccccc2)c1 (stereo not drawn) [Compound [6]]")
"> 90%"
>>> result("CC(C)(CC=C(Cl)Cl)CC(=O)OCc1cccc(Oc2ccccc2)c1 [Compound [11]]")
"> 90%"
>>> result("C#CC(OC(=O)C(CC=C(Cl)Cl)C(C)C)c1cccc(Oc2ccccc2)c1 (stereo not drawn) [Compound [7]]")
"> 90%"
>>> result("CC(C)(CC(=O)OC(C#N)c1cccc(Oc2ccccc2)c1)C(Cl)C=C(Cl)Cl (stereo not drawn) [Compound [18]]")
"> 90%"

----------
Parameter: mortality at 1 %, 0.01 mg. Scope: all listed entries.
- Tested on: cockroaches (Blattella germanica)
- protocol.text: Mortality test against cockroaches by topical application method (Test Example 3)
- Format: in vivo
- condition.set: 1 μl of 1% solution in acetone, female cockroaches, 24 hours, 25° C.
observable: mortality at 1 %, 0.01 mg

>>> result("CC(C)C(CC=C(Cl)Cl)C(=O)OC(C#N)c1cccc(Oc2ccccc2)c1 (stereo not shown) [Compound [6]]")
"100%"
>>> result("C#CC(OC(=O)C(CC=C(Cl)Cl)C(C)C)c1cccc(Oc2ccccc2)c1 (stereo not shown) [Compound [7]]")
"80%"
>>> result("C#CC(OC(=O)C(C=C(Cl)Cl)C(C)C)c1cccc(Oc2ccccc2)c1 (stereo not shown) [[2]]")
"80%"
>>> result("CC(C)C(C=C(Cl)Cl)C(=O)OC(C#N)c1cccc(Oc2ccccc2)c1 (stereo not shown) [Compound [1]]")
"100%"

----------
- Test system: green rice leafhoppers
- protocol.text: Spray test on rice seedlings against green rice leafhoppers (Utility Example 1)
- Format: in vivo, green rice leafhoppers (Nephotettix cincticeps)
- condition.set: 30% emulsifiable concentrate (Formulation Example 5) diluted 300-fold, 10 ml/pot, 24 hours
observable: Mortality (%)

>>> result("CC(C)C(C=C(Cl)Cl)C(=O)OC(C#N)c1cccc(Oc2ccccc2)c1 (stereo not drawn) [Compound [1]]")
"not less than 90%"
>>> result("C#CC(OC(=O)C(CC=C(Cl)Cl)C(C)C)c1cccc(Oc2ccccc2)c1 (stereo not drawn) [Compound [7]]")
"not less than 90%"
>>> result("CC(C)(CC=C(Cl)Cl)CC(=O)OC(C#N)c1cccc(Oc2ccccc2)c1 (stereo not drawn) [Compound [12]]")
"not less than 90%"

----------
- protocol.text: Light stability test (Test Example 4)
- Type: physicochemical
- condition.set: direct sunlight between glass plates, 12° C., 8 hrs., relative to aluminum foil-covered control; read-out: Residue (%) Exposure time 8 hrs.
Parameter: remaining at 8 h. Scope: all listed entries.
observable: remaining at 8 h (%)

>>> quantitative_readout("CC(C)(CC=C(Cl)Cl)CC(=O)OC(C#N)c1cccc(Oc2ccccc2)c1 (centres unmarked) [Compound [12]]")
90
>>> quantitative_readout("CC(C)C(CC=C(Cl)Cl)C(=O)OCc1cccc(Oc2ccccc2)c1 (centres unmarked) [Compound [5]]")
98
>>> quantitative_readout("CC(C)C(C=C(Cl)Cl)C(=O)OC(C#N)c1cccc(Oc2ccccc2)c1 (centres unmarked) [Compound [1]]")
90
>>> quantitative_readout("C#CC(OC(=O)CC(C)(C)C(Cl)C=C(Cl)Cl)c1cccc(Oc2ccccc2)c1 (centres unmarked) [Compound [19]]")
92
>>> quantitative_readout("C#CC(OC(=O)C(CC=C(Br)Br)C(C)C)c1cccc(Oc2ccccc2)c1 (centres unmarked) [Compound [10]]")
97
>>> quantitative_readout("C#CC(OC(=O)CC(C)(C)CC=C(Cl)Cl)c1cccc(Oc2ccccc2)c1 (centres unmarked) [Compound [13]]")
100
>>> quantitative_readout("CC(C)C(CC=C(Cl)Cl)C(=O)OC(C#N)c1cccc(Oc2ccccc2)c1 (centres unmarked) [Compound [6]]")
92
>>> quantitative_readout("C=CCC1=C(C)C(OC(=O)C2C(C=C(C)C)C2(C)C)CC1=O (centres unmarked) [Allethrin, reference compound]")
17

----------
- protocol.text: Light stability test (Test Example 4)
- Format: physicochemical
- condition.set: direct sunlight between glass plates, 12° C., 4 hrs., relative to aluminum foil-covered control; read-out: Residue (%) Exposure time 4 hrs.
observable: remaining at 4 h (%)

>>> quantitative_readout("CC(C)(CC(=O)OC(C#N)c1cccc(Oc2ccccc2)c1)C(Cl)C=C(Cl)Cl (centres unmarked) [Compound [18]]")
98
>>> quantitative_readout("CC(C)C(CC=C(Cl)Cl)C(=O)OC(C#N)c1cccc(Oc2ccccc2)c1 (centres unmarked) [Compound [6]]")
92
>>> quantitative_readout("C#CC(OC(=O)CC(C)(C)CC=C(Cl)Cl)c1cccc(Oc2ccccc2)c1 (centres unmarked) [Compound [13]]")
100
>>> quantitative_readout("C#CC(OC(=O)CC(C)(C)C(Cl)C=C(Cl)Cl)c1cccc(Oc2ccccc2)c1 (centres unmarked) [Compound [19]]")
97
>>> quantitative_readout("C#CC(OC(=O)C(CC=C(Cl)Cl)C(C)C)c1cccc(Oc2ccccc2)c1 (centres unmarked) [Compound [7]]")
96
>>> quantitative_readout("C#CC(OC(=O)C(C=C(Cl)Cl)C(C)C)c1cccc(Oc2ccccc2)c1 (centres unmarked) [[2]]")
97
>>> quantitative_readout("CC(C)(CC(=O)OCc1cccc(Oc2ccccc2)c1)C(Cl)C=C(Cl)Cl (centres unmarked) [Compound [17]]")
100
>>> quantitative_readout("C=CCC1=C(C)C(OC(=O)C2C(C=C(C)C)C2(C)C)CC1=O (centres unmarked) [Allethrin, reference compound]")
35

----------
Parameter: remaining at 8 h. Scope: all listed entries.
- protocol.text: Light stability test (Test Example 4)
- Assay type: physicochemical
- condition.set: direct sunlight between glass plates, 12° C., 8 hrs., relative to aluminum foil-covered control; read-out: Residue (%) Exposure time 8 hrs.
- Procedure: Into 2.0 ml of acetone were dissolved 80 mg of each test compound. A 5 μl portion of the solution was taken and spread on a glass plate (Micro Standard Cover Glass, 18 m/m No. 1, 200 pcs, Matsunami Glass Ind., Ltd.) and the acetone was evaporated. Then, a similar glass plate was superimposed on the above plate in such a manner that the test liquid was sandwitched. […] The residue (%) was calculated with the value for the aluminum foil-covered control specimen as the standard.
observable: remaining at 8 h (%)

>>> quantitative_readout("CC(C)(CC(=O)OCc1cccc(Oc2ccccc2)c1)C(Cl)C=C(Cl)Cl (centres unmarked) [Compound [17]]")
100
>>> quantitative_readout("C#CC(OC(=O)C(C=C(Cl)Cl)C(C)C)c1cccc(Oc2ccccc2)c1 (centres unmarked) [[2]]")
100
>>> quantitative_readout("C#CC(OC(=O)C(CC=C(Cl)Cl)C(C)C)c1cccc(Oc2ccccc2)c1 (centres unmarked) [Compound [7]]")
96
>>> quantitative_readout("CC(C)(CC=C(Cl)Cl)CC(=O)OCc1cccc(Oc2ccccc2)c1 [Compound [11]]")
96
>>> quantitative_readout("CC(C)(CC(=O)OC(C#N)c1cccc(Oc2ccccc2)c1)C(Cl)C=C(Cl)Cl (centres unmarked) [Compound [18]]")
97
